Reference source for all entries: paper PMC9482650

molecular target: PDLIM1, O00151; assay: holdup assay; parameters: key: below the threshold = too weak to quantify, mostly under pKd 3.1 to 4; conditions: plain residues with an end cap or a label only (N-terminal biotin on a linker: ttds)
Sequence (O00151 1-87): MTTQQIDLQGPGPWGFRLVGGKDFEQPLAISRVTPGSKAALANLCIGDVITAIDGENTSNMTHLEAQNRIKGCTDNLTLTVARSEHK
MEASURED_QUANTITY: pKd

Example cases with answers are listed next.
{"BINDER": "LCALPKVTTV [AGMAT, Q9BSE5]", "pKd": "below the threshold"}
{"BINDER": "LDSQIQETSI [MAP4, P27816]", "pKd": "below the threshold"}
{"BINDER": "NYWPGKETQL [SLCO1C1, Q9NYB5]", "pKd": 3.73}
{"BINDER": "PKRPFVESNV [TANC2, Q9HCD6]", "pKd": "below the threshold"}
{"BINDER": "SEKHFRETEV [HTLV1-TAX1, P03409]", "pKd": 3.69}

Given the binder GGPKEEESPV [SLC16A1, P53985] , what is its reported pKd?
below the threshold

Given the binder DPRNTQTSQI [ABRAXAS2, Q15018] , what is its reported pKd?
below the threshold

Given the binder RTRQRNETQV [HPV51-E6, P26554] , what is its reported pKd?
below the threshold
